Potency for assorted compounds
biological target: Glucocorticoid receptor (Homo sapiens) (UniProt P04150); experiment: GR-EFC Redistribution (AID 451); conditions: CHO-K1 GR-EFC translocation, beta-gal luminescence, 2 h; note: potency is the fitted concentration of half-maximal effect
Sequence (P04150 whole entry, looked up): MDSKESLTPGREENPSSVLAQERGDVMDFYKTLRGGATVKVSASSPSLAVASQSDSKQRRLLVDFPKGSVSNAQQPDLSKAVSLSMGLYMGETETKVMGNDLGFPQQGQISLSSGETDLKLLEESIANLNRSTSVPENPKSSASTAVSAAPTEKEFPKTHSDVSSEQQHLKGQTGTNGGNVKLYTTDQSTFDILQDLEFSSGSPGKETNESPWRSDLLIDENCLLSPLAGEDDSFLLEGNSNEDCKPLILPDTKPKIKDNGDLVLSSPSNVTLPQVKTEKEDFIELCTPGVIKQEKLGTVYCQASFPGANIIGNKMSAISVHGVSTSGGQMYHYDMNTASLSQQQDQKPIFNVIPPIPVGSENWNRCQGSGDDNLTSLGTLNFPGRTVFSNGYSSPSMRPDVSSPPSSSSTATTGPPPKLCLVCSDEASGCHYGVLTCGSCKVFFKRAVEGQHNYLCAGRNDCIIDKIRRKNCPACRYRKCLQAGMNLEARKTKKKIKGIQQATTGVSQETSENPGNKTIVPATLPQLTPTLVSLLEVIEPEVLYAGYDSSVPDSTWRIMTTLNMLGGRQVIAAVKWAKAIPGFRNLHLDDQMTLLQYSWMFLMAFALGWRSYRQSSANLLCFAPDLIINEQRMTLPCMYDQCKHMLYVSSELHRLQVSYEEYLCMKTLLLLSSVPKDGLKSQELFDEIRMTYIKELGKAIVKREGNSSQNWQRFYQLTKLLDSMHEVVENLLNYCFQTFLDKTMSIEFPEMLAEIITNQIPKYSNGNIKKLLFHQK
Activity calls are given as the source filed them. Calls come from the whole dose curve.

Sample records with Potency:
smiles-text | Potency
CCn1cnc2c(Nc3cccc(Cl)c3)nc(N[C@@H]3CCCC[C@H]3N)nc21 | > 46 µM (inactive)
FC(F)(F)c1nc2ccc(SSc3ccc4nc(C(F)(F)F)[nH]c4c3)cc2[nH]1 | > 9.22 µM (inactive)
Cc1ncc([N+](=O)[O-])n1CCN=[N+]=[N-] | > 9.22 µM (inactive)
CC[C@@H]1CN2CCc3cc(OC)c(OC)cc3[C@H]2C[C@@H]1C[C@@H]1NCCc2cc(O)c(OC)cc21 | > 20.6 µM (inactive)
O=C(O)[C@H]1[C@H](C(=O)O)[C@H]2CC[C@@H]1O2 | > 46 µM (inactive)

Observed Potency on Glucocorticoid receptor (Homo sapiens) (UniProt P04150) for `N#CCCCC[N+]12CN3CN(CN(C3)C1)C2` , please.
> 9.22 µM (inactive)

Data provenance is PubChem BioAssay (NCATS).
